Taken from patent US12655184B2.

- protocol.notes: solubility in phosphate buffer with/without 0.9% NaCl, pH serially lowered with acetic acid, concentration remaining in solution
- Format: physicochemical
- conditions: pH 5, PBS without NaCl, pH 5; read-out: Solubility pH 5
Ends that are not written are not given here.
recorded.endpoint: solubility (µg/mL)

Before answering, review these 2 worked examples.
[[record]]
residue_sequence = "NEGIEITEVTAPPEDNPVEDSQ [SEQ ID NO: 31]"
recorded_endpoint = "solubility"
recorded_number = 802

[[record]]
residue_sequence = "GEDLQQEDGPTGEPQQEDDEFL [SEQ ID NO: 29]"
recorded_endpoint = "solubility"
recorded_number = 738


I. DMEEMMSEQENPDSSEPVVEDE [SEQ ID NO: 30]
II. DSQVIVEEVSIFPVEEQQEVPPD [SEQ ID NO: 32]
Exam item: Compare I and II by numeric solubility and name the larger one. Give the label of your selection.
Marked response: I
